tested-system: c-Kit (Homo sapiens)
measurement-description: c-Kit tyrosine kinase inhibition, Caliper screening (fluorescent substrate phosphorylation, electrophoretic separation)
Type: biochemical
reported-conditions: concentration 1.0E−06 (unit not given)
reported-endpoint: c-Kit AVG % Activity at Specific Concentration (%)
State just the number; it will be interpreted in %.

compound="COCCOCCOCCOCCOCCOCCOCCNC(=O)c1c(C)[nH]c(/C=C2\\C(=O)Nc3ccc(F)cc32)c1C [mPEG7-semaxanib]" experimental_value=11
compound="COCCOCCOCCOCCOCCOCCOCCOCCNC(=O)c1c(C)[nH]c(/C=C2\\C(=O)Nc3ccc(F)cc32)c1C [mPEG8-semaxanib]" experimental_value=11
compound="COCCOCCOCCNC(=O)c1c(C)[nH]c(/C=C2\\C(=O)Nc3ccc(F)cc32)c1C [mPEG3-semaxanib]" experimental_value=2
compound="COCCOCCOCCOCCOCCNC(=O)c1c(C)[nH]c(/C=C2\\C(=O)Nc3ccc(F)cc32)c1C [mPEG5-semaxanib]" experimental_value=6

get_value(item= COCCOCCOCCOCCNC(=O)c1c(C)[nH]c(/C=C2\C(=O)Nc3ccc(F)cc32)c1C [mPEG4-semaxanib] , readout=c-Kit AVG % Activity at Specific Concentration) returns 3

get_value(item= COCCOCCOCCOCCOCCOCCOCCOCCOCCNC(=O)c1c(C)[nH]c(/C=C2\C(=O)Nc3ccc(F)cc32)c1C [mPEG9-semaxanib] , readout=c-Kit AVG % Activity at Specific Concentration) returns 16

get_value(item= COCCOCCOCCOCCOCCOCCNC(=O)c1c(C)[nH]c(/C=C2\C(=O)Nc3ccc(F)cc32)c1C [mPEG6-semaxanib] , readout=c-Kit AVG % Activity at Specific Concentration) returns 8

====

tested-system: VEGFR-2 (Homo sapiens, UniProt P35968)
Sequence (P35968 20-1356, species assumed): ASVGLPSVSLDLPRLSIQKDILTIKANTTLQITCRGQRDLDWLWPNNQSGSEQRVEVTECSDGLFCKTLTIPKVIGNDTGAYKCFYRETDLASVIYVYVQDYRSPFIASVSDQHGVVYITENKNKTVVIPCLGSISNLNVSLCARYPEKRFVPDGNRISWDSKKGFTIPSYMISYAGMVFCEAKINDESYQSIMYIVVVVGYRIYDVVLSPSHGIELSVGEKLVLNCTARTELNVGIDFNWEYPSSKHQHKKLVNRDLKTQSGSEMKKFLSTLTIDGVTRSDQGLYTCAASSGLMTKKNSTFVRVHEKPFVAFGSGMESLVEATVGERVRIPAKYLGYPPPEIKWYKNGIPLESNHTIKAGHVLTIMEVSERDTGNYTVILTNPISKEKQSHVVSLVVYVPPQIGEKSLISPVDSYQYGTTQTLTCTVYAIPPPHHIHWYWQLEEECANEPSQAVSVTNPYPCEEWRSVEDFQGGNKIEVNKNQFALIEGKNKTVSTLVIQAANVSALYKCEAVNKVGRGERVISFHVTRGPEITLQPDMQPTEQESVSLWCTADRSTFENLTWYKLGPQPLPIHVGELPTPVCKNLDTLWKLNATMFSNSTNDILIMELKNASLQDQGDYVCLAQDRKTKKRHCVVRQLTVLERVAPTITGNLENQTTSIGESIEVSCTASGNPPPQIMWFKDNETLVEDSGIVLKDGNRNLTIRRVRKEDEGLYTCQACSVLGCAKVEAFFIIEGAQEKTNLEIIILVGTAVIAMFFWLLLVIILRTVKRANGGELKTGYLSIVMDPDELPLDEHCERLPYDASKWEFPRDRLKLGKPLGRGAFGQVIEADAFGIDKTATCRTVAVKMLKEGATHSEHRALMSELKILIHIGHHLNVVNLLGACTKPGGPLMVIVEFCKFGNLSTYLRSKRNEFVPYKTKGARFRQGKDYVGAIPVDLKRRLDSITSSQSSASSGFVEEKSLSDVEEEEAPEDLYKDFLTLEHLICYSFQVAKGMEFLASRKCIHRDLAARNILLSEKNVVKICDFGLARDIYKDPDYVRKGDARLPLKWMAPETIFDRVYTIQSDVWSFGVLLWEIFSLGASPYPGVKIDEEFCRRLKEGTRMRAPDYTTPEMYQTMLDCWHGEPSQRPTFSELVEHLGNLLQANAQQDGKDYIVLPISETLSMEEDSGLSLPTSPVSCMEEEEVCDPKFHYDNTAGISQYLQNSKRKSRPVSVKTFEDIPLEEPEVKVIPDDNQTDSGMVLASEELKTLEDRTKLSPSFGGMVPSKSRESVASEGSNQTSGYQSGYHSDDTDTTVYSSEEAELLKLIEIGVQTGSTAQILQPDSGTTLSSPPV
measurement-description: VEGFR-2 kinase inhibition, Caliper screening (fluorescent substrate phosphorylation, electrophoretic separation)
reported-conditions: concentration 3.0E−09 (unit not given)
So basically: VEGFR-2 AVG % Activity at Specific Concentration at 90% or higher? That is 1. Lower than 90%? That is 0.

# count of solved cases: 3
compound="COCCOCCOCCOCCOCCOCCOCCNC(=O)c1c(C)[nH]c(/C=C2\\C(=O)Nc3ccc(F)cc32)c1C [mPEG7-semaxanib]" assigned_category=1
compound="COCCOCCOCCOCCOCCOCCOCCOCCNC(=O)c1c(C)[nH]c(/C=C2\\C(=O)Nc3ccc(F)cc32)c1C [mPEG8-semaxanib]" assigned_category=0
compound="COCCOCCOCCOCCNC(=O)c1c(C)[nH]c(/C=C2\\C(=O)Nc3ccc(F)cc32)c1C [mPEG4-semaxanib]" assigned_category=1

Turning to the following compound.
Decide: is the reported value of VEGFR-2 AVG % Activity at Specific Concentration for COCCOCCOCCOCCOCCOCCOCCOCCOCCNC(=O)c1c(C)[nH]c(/C=C2\C(=O)Nc3ccc(F)cc32)c1C [mPEG9-semaxanib] equal to or greater than 90%? 0

====

tested-system: c-Kit (Homo sapiens, UniProt P10721)
Sequence (P10721 26-976): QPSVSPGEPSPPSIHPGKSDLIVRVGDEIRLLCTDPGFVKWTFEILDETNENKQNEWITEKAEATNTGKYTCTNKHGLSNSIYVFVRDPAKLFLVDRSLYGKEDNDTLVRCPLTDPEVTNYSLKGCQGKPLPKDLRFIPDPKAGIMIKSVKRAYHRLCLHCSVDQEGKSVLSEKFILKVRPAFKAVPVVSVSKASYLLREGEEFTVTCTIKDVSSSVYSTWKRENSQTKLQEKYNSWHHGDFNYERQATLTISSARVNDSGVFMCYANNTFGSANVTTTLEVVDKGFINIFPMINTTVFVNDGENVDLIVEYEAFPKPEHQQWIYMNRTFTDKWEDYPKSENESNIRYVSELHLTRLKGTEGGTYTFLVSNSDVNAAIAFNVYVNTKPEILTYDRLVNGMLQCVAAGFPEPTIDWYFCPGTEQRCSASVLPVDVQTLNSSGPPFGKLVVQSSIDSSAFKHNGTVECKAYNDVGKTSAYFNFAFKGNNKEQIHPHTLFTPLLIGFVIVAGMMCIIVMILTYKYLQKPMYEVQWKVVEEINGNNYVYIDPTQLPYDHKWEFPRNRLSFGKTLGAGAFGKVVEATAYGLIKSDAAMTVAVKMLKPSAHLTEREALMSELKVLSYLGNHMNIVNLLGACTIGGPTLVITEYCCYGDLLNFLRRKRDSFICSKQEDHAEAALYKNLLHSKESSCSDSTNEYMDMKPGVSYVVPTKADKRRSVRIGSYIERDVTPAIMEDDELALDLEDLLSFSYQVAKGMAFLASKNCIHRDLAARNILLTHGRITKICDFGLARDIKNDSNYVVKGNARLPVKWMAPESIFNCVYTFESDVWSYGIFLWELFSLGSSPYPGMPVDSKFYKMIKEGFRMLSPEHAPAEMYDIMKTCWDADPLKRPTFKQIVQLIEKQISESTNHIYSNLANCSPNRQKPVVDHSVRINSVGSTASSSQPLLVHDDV
measurement-description: c-Kit tyrosine kinase inhibition, Caliper screening (fluorescent substrate phosphorylation, electrophoretic separation)
Type: biochemical
reported-conditions: fold of IC50 relative to sunitinib
So basically: c-Kit Fold at 3 or higher? That is yes (1). Lower than 3? That is no (0).

# count of solved cases: 5
chemical_structure=COCCOCCOCCOCCOCCOCCOCCOCCOCCNC(=O)c1c(C)[nH]c(/C=C2\C(=O)Nc3ccc(F)cc32)c1C assigned_category="yes (1)"
chemical_structure=COCCOCCOCCOCCNC(=O)c1c(C)[nH]c(/C=C2\C(=O)Nc3ccc(F)cc32)c1C assigned_category="no (0)"
chemical_structure=COCCOCCOCCNC(=O)c1c(C)[nH]c(/C=C2\C(=O)Nc3ccc(F)cc32)c1C assigned_category="no (0)"
chemical_structure=COCCOCCOCCOCCOCCNC(=O)c1c(C)[nH]c(/C=C2\C(=O)Nc3ccc(F)cc32)c1C assigned_category="yes (1)"
chemical_structure=COCCOCCOCCOCCOCCOCCOCCOCCNC(=O)c1c(C)[nH]c(/C=C2\C(=O)Nc3ccc(F)cc32)c1C assigned_category="yes (1)"

Decide: is the reported value of c-Kit Fold for COCCOCCOCCOCCOCCOCCNC(=O)c1c(C)[nH]c(/C=C2\C(=O)Nc3ccc(F)cc32)c1C equal to or greater than 3? yes (1)

Decide: is the reported value of c-Kit Fold for COCCOCCOCCOCCOCCOCCOCCNC(=O)c1c(C)[nH]c(/C=C2\C(=O)Nc3ccc(F)cc32)c1C equal to or greater than 3? yes (1)
